Molecular target: Syk (Homo sapiens, UniProt P43405)
Construct: purchased Carna Biosciences
Assay: Syk HTRF assay
Assay type: biochemical
Settings: IC50 activity level, read-out: Activity Level
value.type: IC50

Below are worked cases with known answers.
INSERT INTO measurements (compound, result) VALUES
  ('c1ccc(Nc2nc3cccc(C4CCNCC4)n3n2)cc1 [Example 512]', '1000 to 10000 nM'),
  ('c1cc(NC2CCCNC2)n2nc(Nc3ccc4cn[nH]c4c3)nc2c1 (stereo in doubt) [Example 464]', '0.005 to 250 nM'),
  ('Cc1noc2cc(Nc3nc4cccc(CC5CCOCC5)n4n3)ccc12 [Example 537]', '500 to 1000 nM');

Sample O[C@H]1CC[C@@H](Nc2cccc3nc(Nc4ccc(C(F)(F)F)cc4)nn23)C1 (stereo in doubt) [Example 418] ; IC50 observed: 0.005 to 250 nM
